The values you see were collected from patent US20260234276A1.

- Measurement Target: T1, biotinylated CCR8 peptide (human, N-terminal biotin)
- T1 construct: first 34 residues of human CCR8 plus a C-terminal K; also called biotinylated target peptide
- Experiment Notes: ELISA, soluble Fab on biotinylated CCR8 peptide captured on streptavidin
The binders listed here are annotated with their Optical Density.
Enter your answer as a number in OD450; do not include the unit.

{"Binder": "3-62 (Fab, V domains shown, soluble Fab from phage display library huFabL-4, Flag tag) VH: QVQLQQSGPGLVKPSQTLSLTCAISGDSVSNNSAAWNWIRQSPSRGLEWLGRTYYRSKWYTDYAVSVKSRITINPDTSKNQFSLQLNSVTPEDTAVYYCARASGYSSGQVEYWGKGTLVTVSS VL: QSVLTQPPSVSAAPGQKVTISCSGSSSNIGNNYISWYQQVPGTAPKLLIYGNNKRPSGIPARFSGSKSGTSATLDITGLQIGDEADYYCGTWESSLRAVVFGGGTKLTVLG", "Optical Density / OD450": 3.6}

Turning now to a further binder:
Challenge: Need Optical Density of 3-63 (Fab, V domains shown, soluble Fab from phage display library huFabL-4, Flag tag) VH: QVQLQESGGGVVQPGRSLRLSCAASGFTFSSYGMHWVRQAPGKGLEWVAVISYDGSNKYYADSVKGRFTISRDNSKNTLYLQMNSLRAEDTAVYYCARDRPGGMDVWGKGTMVTVSS VL: DVVMTQSPLSLPVTLGQPASISCRSSQSLVHSNGNTYLTWFQQRPGQSPRRLIYKVSNRDSGVPDRFSGSGSGTDFTLKISRVEAEDVGVYYCMQGTRWYTFGQGTKLEIKR , thanks.
Response given: 3.66
